target: human CD47 (hCD47) (human, UniProt Q08722 19-139, limits assumed); assay: blocking ELISA, coated hCD47 ECD Fc, supernatant + biotin-SIRPα ECD His
Sequence (Q08722 19-139 limits assumed): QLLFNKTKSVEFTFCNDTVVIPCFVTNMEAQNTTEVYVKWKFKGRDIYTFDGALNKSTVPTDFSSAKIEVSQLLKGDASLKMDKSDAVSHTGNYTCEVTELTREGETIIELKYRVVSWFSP
Parameter: Blocking (OD)
All answers are understood in OD, so give the number only.

4RP6-1-10A (designed binder, tested as bacterial supernatant; also called S-16; hSIRPα-mt13 (IgV domain)) hSIRPα IgV domain mutant: EEELQVIQPDKSVSVAAGESAILHCTVTSLLPVGPIQWFRGAGPARELIYNQKDFLFPRVTTVSESTKRENRDFSISISNITPADAGTYYCVKFRKGSPDTEFKSGAGTELSVRAKPS
0.45
4RP13-3-7B (designed binder, tested as bacterial supernatant; also called S-28; hSIRPα-mt10 (IgV domain)) hSIRPα IgV domain mutant: EEELQVIQPDKSVSVAAGESAILTCTVTSLYPVGPIQWFRGAGPARELIYNQKRQTFPRVTTVSESTKRFNMDFSISISNITPADAGTYYCVKFRKGSPDTEFKSGAGTELSVRAKPS
0.332
2R-1-4B (designed binder, tested as bacterial supernatant; also called hSIRPα-mt14 (IgV domain)) hSIRPα IgV domain mutant: EEELQVIQPDKSVSVAAGESAILHCTVTSLAPVGPIQWFRGAGPARELIYNQKLDSFPRVTTVSESTKRESMDFSISISNITPADAGTYYCVKFRKGSPDTEFKSGAGTELSVRAKPS
1.36
2R-1-7B (designed binder, tested as bacterial supernatant; also called hSIRPα-mt7 (IgV domain)) hSIRPα IgV domain mutant: EEELQVIQPDKSVSVAAGESAILHCIVTSLIPVGPIQWFRGAGPARELIYNQKILTFPRVTTVSESTKRENYDFSISISNITPADAGTYYCVKFRKGSPDTEFKSGAGTELSVRAKPS
1.43

Name the reported Blocking (OD) value associated with the binder 4RP13-5-6G (designed binder, tested as bacterial supernatant; also called hSIRPα-mt15 (IgV domain)) hSIRPα IgV domain mutant: EEELQVIQPDKSVSVAAGESAILRCTVTSLTPVGPIQWFRGAGPARELIYNQKAKQFPRVTTVSESTKRENMIFSISISNITPADAGTYYCVKFRKGSPDTEFKSGAGTELSVRAKPS
1.11

Name the reported Blocking (OD) value associated with the binder 2R-1-10B (designed binder, tested as bacterial supernatant; also called hSIRPα-mt6 (IgV domain)) hSIRPα IgV domain mutant: EEELQVIQPDKSVSVAAGESAILHCTVTSLIPVGPIQWFRGAGPARELIYNQKNLIFPRVTTVSESGKRENMDFSISISNITPADAGTYYCVKFRKGSPDTEFKSGAGTELSVRAKPS
1.37
